- Target of assay: Papain (Carica papaya)
- Sequence (P00784 whole entry): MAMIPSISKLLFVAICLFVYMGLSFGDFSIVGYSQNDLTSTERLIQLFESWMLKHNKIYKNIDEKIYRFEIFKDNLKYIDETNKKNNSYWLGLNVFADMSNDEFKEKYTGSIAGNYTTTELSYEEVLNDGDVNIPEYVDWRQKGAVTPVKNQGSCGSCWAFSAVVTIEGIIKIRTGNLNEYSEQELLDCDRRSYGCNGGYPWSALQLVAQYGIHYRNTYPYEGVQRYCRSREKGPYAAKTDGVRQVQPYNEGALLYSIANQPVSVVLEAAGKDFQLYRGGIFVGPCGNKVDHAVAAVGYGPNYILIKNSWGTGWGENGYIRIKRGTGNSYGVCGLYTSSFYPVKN
- Assay info: Inhibitory activity against papain
Reported property: Ki (µM)
Give the quantity in µM, number only.

Query: Which value of Ki has been reported for COC(=O)/C=C/CNC(=O)C(Cc1ccccc1)NC(C)=O (stereo unspecified) in the records?
Response: 26
